# tested-target: GST-tagged PNCK recombinant protein (Homo sapiens, UniProt Q6P2M8)
# Construct: GST; purchased Novus NBP1-99886
# assay-explanation: ADP-Glo Kinase Assay, biochemical PNCK inhibitor screen
# protocol-conditions: compound 10uM; 25uM ATP; normalized to DMSO and staurosporine controls
Listing of recorded Avg. Normalized % Inhibition, 10uM, ADP Kinase Glo by entry.
observation-type: Avg. Normalized % Inhibition, 10uM, ADP Kinase Glo (%)

* COc1ccc(Cl)c(S(=O)(=O)Nc2ccc(OCC(=O)O)cc2)c1 [UM_038] | 68.8
* CC(C)(CC(=O)Nc1ccc(Oc2ccnc3ccccc23)c(F)c1)C(=O)O [UM_026] | 76.56
* CC(C)c1ccc(NS(=O)(=O)c2cc(-c3ccc(=O)[nH]n3)ccc2Cl)cc1 [UM_029] | 81.53
* COc1ccccc1CNc1ncnc2sc(C(=O)O)c(C)c12 [UM_035] | 75.66
* COc1cccc([C@@H](C)NC(=O)c2ccc(N3CC(=O)NC3=O)cc2)c1 [UM_032] | 69.5
